Reported pIC50 values are given for each entry in this list.
- target_desc: human PPARα (Homo sapiens, UniProt Q07869)
- Construct: host or cells: proprietary non-human mammalian cells
- Sequence (Q07869 1-468): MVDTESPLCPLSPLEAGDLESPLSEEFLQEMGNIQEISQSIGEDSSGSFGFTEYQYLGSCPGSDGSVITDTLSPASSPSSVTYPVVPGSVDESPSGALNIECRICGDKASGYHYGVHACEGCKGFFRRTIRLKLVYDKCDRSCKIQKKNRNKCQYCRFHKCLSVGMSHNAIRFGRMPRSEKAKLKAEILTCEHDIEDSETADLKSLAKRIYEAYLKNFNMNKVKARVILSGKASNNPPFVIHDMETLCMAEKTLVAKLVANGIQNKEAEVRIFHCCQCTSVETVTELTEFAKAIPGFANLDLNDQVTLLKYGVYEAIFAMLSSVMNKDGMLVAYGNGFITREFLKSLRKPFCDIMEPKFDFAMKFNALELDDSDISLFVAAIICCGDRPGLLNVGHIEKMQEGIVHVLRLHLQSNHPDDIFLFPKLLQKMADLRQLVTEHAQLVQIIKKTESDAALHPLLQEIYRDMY
- protocol_notes: Human PPARα Reporter Assay (luciferase, Indigo Biosciences)
- Assay type: cell-based
- conditions: antagonism; luciferase reporter cells, overnight incubation; read-out: PPARα IC50
pIC50: −log10 of the molar value.
endpoint_name: pIC50

[[record]]
chemical_structure = "CC(C)(Oc1ccc(CCCC2=NN(Cc3ccc(C(C)(C)C)cc3)C(=O)C2(C)C)cc1)C(=O)NCc1ccncc1"
numeric_readout = 6.55

[[record]]
chemical_structure = "CC(C)(Oc1ccc(CCCC2=NN(c3cccc(C(F)(F)F)c3)C(=O)C2(C)C)cc1)C(=O)O"
numeric_readout = 7.72

[[record]]
chemical_structure = "CC(C)(Oc1ccc(CCCC2=NN(Cc3ccc(C(C)(C)C)cc3)C(=O)C2(C)C)cc1)C(=O)O"
numeric_readout = 7.82

[[record]]
chemical_structure = "CC(C)(CNS(=O)(=O)c1ccccc1)Oc1ccc(CCCC2=NN(c3ccc(C(F)(F)F)cc3)C(=O)C23CCCC3)cc1"
numeric_readout = 5.89

[[record]]
chemical_structure = "CC(C)(Oc1ccc(CCCC2=NN(c3cccc(-c4ccccc4)c3)C(=O)C23CCCC3)cc1)C(=O)O"
numeric_readout = 7.60

[[record]]
chemical_structure = "CC(C)(Oc1ccc(CCCC2=NN(Cc3ccc(C(F)(F)F)cc3)C(=O)C23CCCC3)cc1)C(=O)O"
numeric_readout = 6.02

[[record]]
chemical_structure = "CC(C)(Oc1ccc(CCCC2=NN(c3cccc(OC(F)(F)F)c3)C(=O)C23CCCC3)cc1)C(=O)O"
numeric_readout = 7.57

[[record]]
chemical_structure = "CC(C)(Oc1ccc(CCCC2=NN(CCc3ccccc3)C(=O)C2(C)C)cc1)C(=O)O"
numeric_readout = 6.00

[[record]]
chemical_structure = "CC(C)(Oc1ccc(CCCC2=NN(c3ccc(C(F)(F)F)cc3)C(=O)C23CCCC3)cc1)C(=O)O"
numeric_readout = 8.85

[[record]]
chemical_structure = "CCOc1ccc(-c2ccc(CCCC3=NN(Cc4ccc(C(C)(C)C)cc4)C(=O)C3(C)C)cc2)cc1CC(=O)O"
numeric_readout = 6.96

[[record]]
chemical_structure = "CC(C)(Oc1ccc(CCCC2=NN(c3ccc(C(F)(F)F)cc3)C(=O)C23CCCC3)cc1)C(=O)NC1CC1"
numeric_readout = 6.96

[[record]]
chemical_structure = "CC(C)(CNC(=O)c1ccccc1)Oc1ccc(CCCC2=NN(c3ccc(C(F)(F)F)cc3)C(=O)C23CCCC3)cc1"
numeric_readout = 6.24

[[record]]
chemical_structure = "CC(C)(Oc1ccc(CCCC2=NN(Cc3cccc(C(F)(F)F)c3)C(=O)C2(C)C)cc1)C(=O)O"
numeric_readout = 6.05

[[record]]
chemical_structure = "CC(C)(Oc1ccc(CCCC2=NN(Cc3ccc(C4CC4)cc3)C(=O)C2(C)C)cc1)C(=O)O"
numeric_readout = 6.85

[[record]]
chemical_structure = "CC(C)(Oc1ccc(CCCC2=NN(c3ccc(OC(F)(F)F)cc3)C(=O)C23CCCC3)cc1)C(=O)O"
numeric_readout = 9.01


###

- target_desc: Thyroid Receptor β (Homo sapiens, UniProt P10828)
- Sequence (P10828 1-461): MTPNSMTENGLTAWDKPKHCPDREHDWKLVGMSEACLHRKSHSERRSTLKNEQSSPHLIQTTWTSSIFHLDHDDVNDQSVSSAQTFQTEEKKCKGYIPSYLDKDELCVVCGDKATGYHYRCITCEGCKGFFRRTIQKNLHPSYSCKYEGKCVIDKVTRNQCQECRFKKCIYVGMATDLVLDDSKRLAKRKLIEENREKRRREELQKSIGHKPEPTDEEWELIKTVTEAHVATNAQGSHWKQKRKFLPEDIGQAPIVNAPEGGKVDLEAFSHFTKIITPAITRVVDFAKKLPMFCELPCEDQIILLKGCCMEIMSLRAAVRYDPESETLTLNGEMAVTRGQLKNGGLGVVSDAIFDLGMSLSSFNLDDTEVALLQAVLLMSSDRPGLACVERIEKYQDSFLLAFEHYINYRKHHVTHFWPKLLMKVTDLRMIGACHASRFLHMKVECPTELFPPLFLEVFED
- protocol_notes: Thyroid Receptor β reporter counterscreen (Indigo Biosciences kit)
- conditions: receptor agonist at ~EC80 for antagonist potency
endpoint_name: IC50 (µM)

[[record]]
chemical_structure = "CC1(C)C(=O)N(c2ccc(C(F)(F)F)cc2)N=C1CCCc1ccc(OC2(C(=O)O)CCC2)cc1"
target_desc = "Thyroid Receptor β (Homo sapiens, UniProt P10828)"
numeric_readout = 61


###

- target_desc: human PPARα (Homo sapiens)
- Construct: host or cells: proprietary non-human mammalian cells
- protocol_notes: Human PPARα Reporter Assay (luciferase, Indigo Biosciences)
- Type: cell-based
- conditions: antagonism; luciferase reporter cells, overnight incubation; read-out: PPARα IC50
- Protocol: Human PPARα Reporter Assay The screening of test compounds for agonist or antagonist activities against human PPARα receptors was performed using a commercial kit, Human PPARα Reporter Assay System (Indigo Biosciences, Cat. #IB00111). This nuclear receptor assay system utilizes proprietary non-human mammalian cells engineered to provide constitutive, high-level expression of Human PPARα. […]
endpoint_name: IC50 (nM)

[[record]]
chemical_structure = "CC(C)(Oc1ccc(CCCC2=NN(Cc3ccc(C(C)(C)C)cc3)C(=O)C2(C)C)cc1)C(=O)NCc1ccccc1"
target_desc = "human PPARα (Homo sapiens)"
endpoint_name = "IC50"
result_unit = "nM"
numeric_readout = 160

[[record]]
chemical_structure = "CC(C)(Oc1ccc(CCCC2=NN(Cc3ccc(Br)cc3)C(=O)C2(C)C)cc1)C(=O)O"
target_desc = "human PPARα (Homo sapiens)"
endpoint_name = "IC50"
result_unit = "nM"
numeric_readout = 360

[[record]]
chemical_structure = "CC(C)(Oc1ccc(CCCC2=NN(Cc3ccc(-c4ccccc4)cc3)C(=O)C2(C)C)cc1)C(=O)O"
target_desc = "human PPARα (Homo sapiens)"
endpoint_name = "IC50"
result_unit = "nM"
numeric_readout = 260

[[record]]
chemical_structure = "CC(C)(Oc1ccc(CCCC2=NN(Cc3ccc(C(F)(F)F)c(F)c3)C(=O)C2(C)C)cc1)C(=O)O"
target_desc = "human PPARα (Homo sapiens)"
endpoint_name = "IC50"
result_unit = "nM"
numeric_readout = 120


###

- target_desc: human PPARα (Homo sapiens)
- Construct: host or cells: proprietary non-human mammalian cells
- Sequence (Q07869 1-468): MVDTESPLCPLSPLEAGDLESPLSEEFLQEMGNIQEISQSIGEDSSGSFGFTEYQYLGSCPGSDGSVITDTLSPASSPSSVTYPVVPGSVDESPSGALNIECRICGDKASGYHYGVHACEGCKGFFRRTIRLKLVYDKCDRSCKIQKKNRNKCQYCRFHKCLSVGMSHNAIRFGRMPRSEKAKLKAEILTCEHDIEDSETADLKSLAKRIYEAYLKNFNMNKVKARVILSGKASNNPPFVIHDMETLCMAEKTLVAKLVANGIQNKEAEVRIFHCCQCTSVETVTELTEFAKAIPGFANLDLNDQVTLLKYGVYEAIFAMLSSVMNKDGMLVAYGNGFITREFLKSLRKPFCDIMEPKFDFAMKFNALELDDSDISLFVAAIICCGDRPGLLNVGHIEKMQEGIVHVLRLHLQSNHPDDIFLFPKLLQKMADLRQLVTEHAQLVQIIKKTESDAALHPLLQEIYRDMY
- protocol_notes: Human PPARα Reporter Assay (luciferase, Indigo Biosciences)
- Assay type: cell-based
- conditions: Target Selectivity - Counterscreen table; read-out: PPAR alpha IC50
pIC50: −log10 of the molar value.
endpoint_name: pIC50

[[record]]
molecule = "CC1(C)C(=O)N(c2ccc(C(F)(F)F)cc2)N=C1CCCc1ccc(OC2(C(=O)O)CCC2)cc1 [Example 50]"
numeric_readout = 8.62

